- Assay: qHTS assay to identify small molecule agonists of the hypoxia (HIF-1) signaling pathway - cell viability counter screen (AID 1224844); note: nearly all actives have a fitted effect of over 50% in size
- Measurement Conditions: HRE-bla ME-180 viability, CellTiter-Glo luminescence, 17 h; series mostly up to 76.8 µM
Inconclusive results are not listed. Calls of active or inactive are those of the source. Calls come from the whole dose curve.
Value Kind: outcome

{"columns": ["Molecule", "Result"],
 "data": [
  ["CCC#N", "inactive"],
  ["O=[N+]([O-])c1ccc2c3c(cccc13)CC2", "inactive"],
  ["Cc1ccccc1CO[C@@H]1C[C@@]2(C(C)C)CC[C@]1(C)O2", "inactive"],
  ["COP(=S)(OC)Oc1ccc(S(N)(=O)=O)cc1", "inactive"]
]}
